FYI, the data here is from patent US20250296922A1.

# target: UniProt:P08684
# Sequence (P08684 2-503 limits assumed): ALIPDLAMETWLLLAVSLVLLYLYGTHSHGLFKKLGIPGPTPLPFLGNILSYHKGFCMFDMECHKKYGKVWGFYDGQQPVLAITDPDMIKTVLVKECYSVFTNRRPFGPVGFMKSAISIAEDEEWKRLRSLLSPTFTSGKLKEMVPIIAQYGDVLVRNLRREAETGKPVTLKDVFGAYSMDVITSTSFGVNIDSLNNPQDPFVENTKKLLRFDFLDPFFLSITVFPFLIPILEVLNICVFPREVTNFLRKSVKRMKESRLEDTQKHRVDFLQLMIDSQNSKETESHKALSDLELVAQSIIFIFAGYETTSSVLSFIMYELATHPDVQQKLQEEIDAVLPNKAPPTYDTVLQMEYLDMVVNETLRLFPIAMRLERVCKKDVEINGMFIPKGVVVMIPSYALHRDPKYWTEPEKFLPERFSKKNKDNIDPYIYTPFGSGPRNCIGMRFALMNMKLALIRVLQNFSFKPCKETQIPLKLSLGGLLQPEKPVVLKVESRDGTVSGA
# assay_procedure: Human liver microsomal CYP inhibition test, CYP3A-M (midazolam)
# Type: in vitro ADME
# condition_notes: probe Midazolam; human liver microsomes 0.2 mg/mL; substrate Midazolam; read-out: IC50 (μM) CYP3A-M
test_readout: IC50 at 10 min (µM)
Write down the numeric answer in µM and omit the unit.

Which IC50 at 10 min reading was recorded for the compound COc1c([C@H]2[C@H](C(=O)Nc3ccc[n+]([O-])c3)N[C@@](C)(C(F)(F)F)[C@H]2C)ccc(F)c1F ? 30.9

====

# target: Nav1.8 sodium channel (Homo sapiens (Human))
# Sequence (Q9Y5Y9 whole entry): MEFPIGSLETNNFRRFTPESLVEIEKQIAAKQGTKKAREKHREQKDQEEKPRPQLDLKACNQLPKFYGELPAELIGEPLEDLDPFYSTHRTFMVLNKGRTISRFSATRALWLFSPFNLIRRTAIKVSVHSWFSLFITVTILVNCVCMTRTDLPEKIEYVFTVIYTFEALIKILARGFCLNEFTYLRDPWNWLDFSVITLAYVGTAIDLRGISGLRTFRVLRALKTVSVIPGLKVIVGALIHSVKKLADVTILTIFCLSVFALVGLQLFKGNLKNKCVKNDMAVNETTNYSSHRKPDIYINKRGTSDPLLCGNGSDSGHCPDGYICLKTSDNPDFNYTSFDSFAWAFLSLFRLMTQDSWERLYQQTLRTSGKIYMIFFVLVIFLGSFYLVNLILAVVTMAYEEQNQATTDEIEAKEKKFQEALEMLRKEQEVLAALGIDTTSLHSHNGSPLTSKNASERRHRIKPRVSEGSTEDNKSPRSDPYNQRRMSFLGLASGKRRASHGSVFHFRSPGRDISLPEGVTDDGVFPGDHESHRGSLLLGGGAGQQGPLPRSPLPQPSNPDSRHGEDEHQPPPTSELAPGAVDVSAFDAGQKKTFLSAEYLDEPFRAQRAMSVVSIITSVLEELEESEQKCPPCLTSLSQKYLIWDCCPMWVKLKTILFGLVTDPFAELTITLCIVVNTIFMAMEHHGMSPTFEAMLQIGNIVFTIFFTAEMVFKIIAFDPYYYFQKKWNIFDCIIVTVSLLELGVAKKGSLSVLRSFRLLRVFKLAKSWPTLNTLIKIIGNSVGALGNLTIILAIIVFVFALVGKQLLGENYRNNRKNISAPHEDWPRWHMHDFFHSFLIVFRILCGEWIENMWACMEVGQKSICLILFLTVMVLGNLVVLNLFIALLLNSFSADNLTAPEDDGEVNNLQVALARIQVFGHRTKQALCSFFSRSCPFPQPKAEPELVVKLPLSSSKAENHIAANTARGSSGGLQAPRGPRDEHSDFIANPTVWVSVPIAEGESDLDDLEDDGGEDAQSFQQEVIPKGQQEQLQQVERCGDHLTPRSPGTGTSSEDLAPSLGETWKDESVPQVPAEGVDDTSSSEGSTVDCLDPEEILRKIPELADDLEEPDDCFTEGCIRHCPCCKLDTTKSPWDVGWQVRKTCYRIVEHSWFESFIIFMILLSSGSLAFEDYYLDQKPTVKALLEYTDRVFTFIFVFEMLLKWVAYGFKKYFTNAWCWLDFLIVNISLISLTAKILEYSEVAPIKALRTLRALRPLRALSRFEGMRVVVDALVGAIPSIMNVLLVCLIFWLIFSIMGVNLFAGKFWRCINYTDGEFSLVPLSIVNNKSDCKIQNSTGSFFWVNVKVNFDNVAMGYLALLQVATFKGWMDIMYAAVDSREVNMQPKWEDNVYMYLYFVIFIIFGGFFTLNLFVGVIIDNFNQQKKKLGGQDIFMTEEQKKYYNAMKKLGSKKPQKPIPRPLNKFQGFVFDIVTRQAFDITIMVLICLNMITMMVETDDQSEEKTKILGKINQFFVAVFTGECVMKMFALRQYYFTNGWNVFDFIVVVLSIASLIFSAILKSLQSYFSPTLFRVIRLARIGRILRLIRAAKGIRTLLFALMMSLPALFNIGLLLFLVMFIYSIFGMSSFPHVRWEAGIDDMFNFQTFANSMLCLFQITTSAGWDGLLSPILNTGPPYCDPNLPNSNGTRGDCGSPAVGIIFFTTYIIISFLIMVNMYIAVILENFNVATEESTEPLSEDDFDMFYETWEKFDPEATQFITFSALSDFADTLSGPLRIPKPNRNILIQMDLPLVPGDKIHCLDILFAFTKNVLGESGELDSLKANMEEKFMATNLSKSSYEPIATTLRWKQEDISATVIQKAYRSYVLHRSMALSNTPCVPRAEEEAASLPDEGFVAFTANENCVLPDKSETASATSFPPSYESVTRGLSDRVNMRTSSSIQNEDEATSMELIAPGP
# assay_procedure: NaV1.8 blocking activity, manual patch clamp
# Format: cell-based
# condition_notes: 10 nM, CHO cell line stably expressing Nav1.8
Measured Blocking rate(%) @10 nM of individual entries

Reference set, count: 3
1. COc1c([C@H]2[C@H](C(=O)Nc3ccc([C@@H](O)CO)nc3)N[C@@](C)(C(F)(F)F)[C@H]2C)ccc(F)c1F; 45.92%
2. COc1c([C@H]2[C@H](C(=O)Nc3ccnc(C(N)=O)c3)N(C)[C@@](C)(C(F)(F)F)[C@H]2C)ccc(F)c1F; 84.03%
3. [2H]C([2H])([2H])Oc1c([C@H]2[C@H](C(=O)Nc3cc[n+]([O-])c(C(N)=O)c3)N[C@@](C)(C(F)(F)F)[C@H]2C)ccc(F)c1F; 63.01%

Could you now consider this next compound?
Which Blocking rate(%) @10 nM reading was recorded for the compound C[C@H]1[C@@H](c2ccc(F)c(F)c2OC(F)F)[C@H](C(=O)Nc2ccnc(C(N)=O)c2)N[C@@]1(C)C(F)(F)F [Compound 13] ? 92.01%
